# Read-out: growth arrest and DNA damage 45 (GADD45G), GADD45G (gene 10912)
# protocol-description: LTEA_HepaRG_GADD45G: Life Technologies and Expression Analysis (LTEA) Assay for growth arrest and DNA damage 45 (GADD45G) using HepaRG (AID 2283499)
# recorded-conditions: mRNA level, 48 h; actives raise or lower the signal
Calls of active or inactive are those of the source. The calls were made as follows: active = hit-call score of the fitted dose curve at least 0.9, where 1 is the maximum; inactive = score below 0.9.
Your answer must be one of the following: active, inactive

compound: CON(C)C(=O)Nc1ccc(Cl)c(Cl)c1
class: inactive
//
compound: C=CC1(C)OC(=O)N(c2cc(Cl)cc(Cl)c2)C1=O (stereo unspecified)
class: inactive
//
compound: Cc1ccc(-c2c(Cl)nc(C#N)n2S(=O)(=O)N(C)C)cc1
class: active

Lookup: Check the results log: what was the call for Fc1ccc(Oc2ccnc3cc(Cl)cc(Cl)c23)cc1 ?
Found: inactive

Lookup: Check the results log: what was the call for COC(=O)C=C(C)OP(=O)(OC)OC ?
Found: inactive

====

# system-tested: Estrogen receptor (Homo sapiens) + Estrogen receptor beta (Homo sapiens) (UniProt P03372+Q92731)
# Sequence (P03372 whole entry, looked up): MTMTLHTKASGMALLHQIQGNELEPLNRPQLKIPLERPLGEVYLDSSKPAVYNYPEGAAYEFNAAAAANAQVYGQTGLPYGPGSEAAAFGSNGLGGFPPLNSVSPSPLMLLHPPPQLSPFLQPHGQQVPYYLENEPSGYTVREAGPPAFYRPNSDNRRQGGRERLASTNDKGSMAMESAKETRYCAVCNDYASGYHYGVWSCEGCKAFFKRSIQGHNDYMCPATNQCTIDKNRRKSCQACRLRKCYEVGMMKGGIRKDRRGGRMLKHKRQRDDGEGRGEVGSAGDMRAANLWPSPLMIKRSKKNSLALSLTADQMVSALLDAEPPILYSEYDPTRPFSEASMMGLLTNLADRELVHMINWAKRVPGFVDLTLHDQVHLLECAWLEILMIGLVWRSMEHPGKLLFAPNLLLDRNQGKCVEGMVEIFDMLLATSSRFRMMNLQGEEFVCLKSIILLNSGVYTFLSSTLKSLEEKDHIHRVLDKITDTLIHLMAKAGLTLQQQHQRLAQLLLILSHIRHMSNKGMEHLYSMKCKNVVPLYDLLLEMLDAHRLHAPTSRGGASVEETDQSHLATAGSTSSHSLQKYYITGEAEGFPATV
# Sequence (Q92731 whole entry, looked up): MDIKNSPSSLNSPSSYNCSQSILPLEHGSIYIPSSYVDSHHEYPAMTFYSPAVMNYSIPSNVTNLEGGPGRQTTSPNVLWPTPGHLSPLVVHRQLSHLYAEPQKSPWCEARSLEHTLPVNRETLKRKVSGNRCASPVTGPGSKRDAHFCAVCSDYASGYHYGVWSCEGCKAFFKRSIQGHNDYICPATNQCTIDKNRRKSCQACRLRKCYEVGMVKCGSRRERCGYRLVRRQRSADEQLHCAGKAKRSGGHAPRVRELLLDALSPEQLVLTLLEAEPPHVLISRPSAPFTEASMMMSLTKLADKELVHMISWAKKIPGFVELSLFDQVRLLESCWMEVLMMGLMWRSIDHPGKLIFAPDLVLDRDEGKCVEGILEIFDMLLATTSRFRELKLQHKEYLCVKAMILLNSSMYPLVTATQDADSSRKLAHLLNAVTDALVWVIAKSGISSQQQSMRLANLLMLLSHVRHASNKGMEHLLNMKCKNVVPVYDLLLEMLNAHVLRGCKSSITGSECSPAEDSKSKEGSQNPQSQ
# protocol-description: OT_ER_ERaERb_0480: Odyssey Thera (OT) 8-hour HEK293T Protein-Complementation Assay for Estrogen Receptor-alpha/-beta Heterodimer (AID 2283352)
Records with an inconclusive call do not appear. Activity calls are given as the source filed them. How the source made its calls: active means hit-call score of the fitted dose curve at least 0.9, where 1 is the maximum; inconclusive means response in the unintended direction; inactive means score below 0.9.
Your answer must be one of the following: active, inactive

Use these answered entries as a reference point.
compound: CNC(=S)S
class: inactive
//
compound: COP(N)(=O)SC (stereo not drawn)
class: inactive
//
compound: Fc1ccc(Oc2ccnc3cc(Cl)cc(Cl)c23)cc1
class: inactive
//
compound: COc1cnc(OC)n2nc(NS(=O)(=O)c3c(OCC(F)F)cccc3C(F)(F)F)nc12
class: inactive
//
compound: C=CC1(C)OC(=O)N(c2cc(Cl)cc(Cl)c2)C1=O (stereo not drawn)
class: inactive

Lookup: Check the results log: what was the call for CCNc1nc(Cl)nc(NC(C)C)n1 ?
Found: inactive

Lookup: Check the results log: what was the call for COC(=O)N(OC)c1ccccc1COc1ccn(-c2ccc(Cl)cc2)n1 ?
Found: inactive

Lookup: Check the results log: what was the call for COC(=O)c1ccccc1C(=O)OC ?
Found: inactive

Lookup: Check the results log: what was the call for COC(=O)C=C(C)OP(=O)(OC)OC ?
Found: inactive

Lookup: Check the results log: what was the call for CCc1nn(C)c(C(=O)NCc2ccc(C(C)(C)C)cc2)c1Cl ?
Found: inactive

Lookup: Check the results log: what was the call for OC(c1ccc(Cl)cc1)(c1cncnc1)c1ccccc1Cl (stereo not drawn) ?
Found: active

Lookup: Check the results log: what was the call for CCOc1cc(Oc2ccc(C(F)(F)F)cc2Cl)ccc1[N+](=O)[O-] ?
Found: inactive

Lookup: Check the results log: what was the call for CC1=C(C(=O)Nc2ccccc2)SCCO1 ?
Found: inactive

Lookup: Check the results log: what was the call for CC(C)C1(C)N=C(c2nc3ccccc3cc2C(=O)O)NC1=O (stereo not drawn) ?
Found: inactive

Lookup: Check the results log: what was the call for C#CCOS(=O)OC1CCCCC1Oc1ccc(C(C)(C)C)cc1 (stereo not drawn) ?
Found: inactive

Lookup: Check the results log: what was the call for CCNc1nc(Cl)nc(NCC)n1 ?
Found: inactive

Lookup: Check the results log: what was the call for CCCCC(CC)COC(=O)c1ccccc1C(=O)OCC(CC)CCCC (stereo not drawn) ?
Found: active

Lookup: Check the results log: what was the call for COc1nc(NC(C)C)nc(NC(C)C)n1 ?
Found: inactive
